- Tested on: human lung cancer strain NCI-H441
- Assay type: cell-based
*1 amine or outer side, *2 acyl side, *3 side chain or, on linkers, in order; H or OH if unused. Where a SMILES comes first, the peptide text is derived from it. Bridges are numbered along the chain shown (N, C = ends). [ ]: non-standard residue; d: D form. The star is where a group is joined. hPhe(3-Cl-4-CF3) = N[C@@H](CCc1ccc(C(F)(F)F)c(Cl)c1)C(=O)O; NPrPhe(4-CF3) = CCCN[C@@H](Cc1ccc(C(F)(F)F)cc1)C(=O)O; X30 = CCN([C@H](C(=O)[*:2])C1CCCC1)[*:1]; NMeGly(cPent) = CN[C@H](C(=O)O)C1CCCC1; NMeD = CN[C@@H](CC(=O)O)C(=O)O; NMeL = CN[C@@H](CC(C)C)C(=O)O; Morpholide = C1CN(*)CCO1; Ac5c = NC1(C(=O)O)CCCC1; Aze = O=C(O)[C@@H]1CCN1; Sar = CNCC(=O)O
measured_metric: pIC50
The scale used: pIC50 is minus the common logarithm of the concentration in molar units.

compound	experimental_target	meas_value
CCCOC[C@H]1C(=O)N[C@@H]([C@@H](C)CC)C(=O)N(C)CC(=O)N(C)[C@H]2C/C=C\CCN(C2=O)[C@@H](Cc2ccc(C(F)(F)F)cc2)C(=O)N(C)CC(=O)N[C@@H](CCc2ccc(C(F)(F)F)c(OC)c2)C(=O)N2C[C@H](OCC)C[C@H]2C(=O)NC2(CCC2)C(=O)N(C)[C@@H](C2CCCC2)C(=O)N(C)[C@H](C(=O)N(C)CCC)CC(=O)N1C [PP2017]	human lung cancer strain NCI-H441	8.60
CC[C@H](C)[C@@H]1NC(=O)[C@H](CC(C)C)N(C)C(=O)C[C@@H](C(=O)N2CCOCC2)N(C)C(=O)[C@H](C2CCCC2)N(C)C(=O)C2(CCCC2)NC(=O)[C@@H]2CCCN2C(=O)[C@H](CCc2ccc(C(F)(F)F)c(Cl)c2)NC(=O)CN(C)C(=O)[C@H](C2CCCC2)N(CC)C(=O)CN(C)C(=O)CN(C)C1=O [PP0024] ([NMeL]I[Sar][Sar][X30][Sar][hPhe(3-Cl-4-CF3)]P[Ac5c][NMeGly(cPent)][NMeD]-Morpholide; lactam N-11)	human lung cancer strain NCI-H441	6.99

query: Reported pIC50 for human lung cancer strain NCI-H441, given CCCN1C(=O)CN(C)C(=O)[C@@H]2CCN2C(=O)[C@H]([C@@H](C)CC)NC(=O)[C@H](CC(C)C)N(C)C(=O)C[C@@H](C(=O)N(C)C)NC(=O)[C@H](C2CCCC2)N(C)C(=O)C2(CCCC2)NC(=O)[C@@H]2CCCN2C(=O)[C@H](CCc2ccc(C(F)(F)F)c(Cl)c2)NC(=O)CN(C)C(=O)[C@@H]1Cc1ccc(C(F)(F)F)cc1 [PP0373] ([NMeL]I[Aze][Sar][NPrPhe(4-CF3)][Sar][hPhe(3-Cl-4-CF3)]P[Ac5c][NMeGly(cPent)]D-NMe2; lactam N-11) ?
result: 6.82

* * *

- experimental_target: GDP-bound KRAS wild-type protein (Homo sapiens, UniProt P01116)
- Sequence (P01116 1-188 isoform P01116-2): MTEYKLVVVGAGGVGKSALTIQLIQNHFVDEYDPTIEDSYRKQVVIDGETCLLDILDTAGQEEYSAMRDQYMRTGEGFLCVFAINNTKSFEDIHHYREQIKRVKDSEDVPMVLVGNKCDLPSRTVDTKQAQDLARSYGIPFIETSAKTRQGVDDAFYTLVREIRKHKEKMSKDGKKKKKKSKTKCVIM
- assay_text: Binding to KRAS by surface plasmon resonance (SPR), dissociation constant KD
- condition: Single Cycle Kinetics, 1:1 binding model
Where a SMILES comes first, the peptide text is derived from it. Bridges are numbered along the chain shown (N, C = ends). [ ]: non-standard residue; d: D form. The star is where a group is joined. hPhe(3-Cl-4-CF3) = N[C@@H](CCc1ccc(C(F)(F)F)c(Cl)c1)C(=O)O; NPrPhe(4-CF3) = CCCN[C@@H](Cc1ccc(C(F)(F)F)cc1)C(=O)O; NMeGly(cPent) = CN[C@H](C(=O)O)C1CCCC1; NMeD = CN[C@@H](CC(=O)O)C(=O)O; NMeL = CN[C@@H](CC(C)C)C(=O)O; Morpholide = C1CN(*)CCO1; Aze = O=C(O)[C@@H]1CCN1; Ac4c = NC1(C(=O)O)CCC1; Sar = CNCC(=O)O
measured_metric: pKd
# reply with the number alone; pKd is -log10 of concentration in mol/L

molecule	measured_metric	meas_value
CCO[C@@H]1C[C@H]2C(=O)NC3(CCC3)C(=O)N(C)[C@@H](C(CC)CC)C(=O)N(C)[C@H](C(=O)N(C)C)CC(=O)N(C)[C@@H](CC3CC3)C(=O)N[C@@H]([C@@H](C)CC)C(=O)N(C)CC(=O)N(C)[C@H]3C/C=C\CCN(C3=O)[C@@H](Cc3ccc(F)cc3C)C(=O)N(C)CC(=O)N[C@@H](CCc3cc(F)c(C(F)(F)F)c(F)c3)C(=O)N2C1 [PP1514]	pKd	9.19
CCO[C@@H]1C[C@H]2C(=O)NC3(CCC3)C(=O)N(C)[C@@H](C3CCCC3)C(=O)N(C)[C@H](C(=O)N3CCOCC3)CC(=O)N(C)[C@@H](CC3CCCCC3)C(=O)N[C@@H]([C@@H](C)CC)C(=O)N(C)CC(=O)N(C)[C@H]3CCCCCN(C3=O)[C@@H](Cc3ccc(C(F)(F)F)cc3)C(=O)N(C)CC(=O)N[C@@H](CCc3cc(F)c(C(F)(F)F)c(F)c3)C(=O)N2C1 [PP0686]	pKd	9.00
CCCC[C@H]1C(=O)N[C@@H]([C@@H](C)CC)C(=O)N(C)CC(=O)N(C)[C@H]2C/C=C\CCN(C2=O)[C@@H](Cc2ccc(C(F)(F)F)cc2)C(=O)N(C)CC(=O)N[C@@H](CCc2cc(F)c(C(F)(F)F)c(F)c2)C(=O)N2C[C@H](OCC)C[C@H]2C(=O)NC2(CCCC2)C(=O)N(C)[C@@H](C2CCCC2)C(=O)N(C)[C@H](C(=O)N(C)C)CC(=O)N1C [PP1397]	pKd	10.14
CCC[C@H]1C(=O)N[C@@H]([C@@H](C)CC)C(=O)N(C)CC(=O)N(C)[C@H]2C/C=C\CCN(C2=O)[C@@H](Cc2ccc(C)cc2)C(=O)N(C)CC(=O)N[C@@H](CCc2ccc(C(F)(F)F)c(Cl)c2)C(=O)N2C[C@H](CC)C[C@H]2C(=O)NC2(CCC2)C(=O)N(C)[C@@H](C2CCCC2)C(=O)N(C)[C@H](C(=O)N(C)C)CC(=O)N1C [PP2237]	pKd	9.85
CC[C@H](C)[C@@H]1NC(=O)[C@H](CC(C)C)N(C)C(=O)C[C@@H](C(=O)N(C)C)N(C)C(=O)[C@H](C2CCCC2)N(C)C(=O)C2(CCC2)NC(=O)[C@@H]2C[C@H](C)CN2C(=O)[C@H](CCc2ccc(C(F)(F)F)c(Cl)c2)NC(=O)CN(C)C(=O)[C@H](Cc2ccc(C)cc2)N2CC/C=C\C[C@@H](C2=O)N(C)C(=O)CN(C)C1=O [PP1852]	pKd	10.15

query: Look at this molecule and give its reported pKd. CCO[C@@H]1C[C@H]2C(=O)NC3(CCC3)C(=O)N(C)[C@@H](C3CCCC3)C(=O)N(C)[C@H](C(=O)N(C)C)CC(=O)N(C)[C@@H](CC)C(=O)N[C@@H]([C@@H](C)CC)C(=O)N(C)CC(=O)N(C)[C@H]3CCCCCN(C3=O)[C@@H](Cc3ccc(F)cc3)C(=O)N(C)CC(=O)N[C@@H](CCc3cc(F)c(C(F)(F)F)c(F)c3)C(=O)N2C1 [PP1190]
result: 10.04

query: # input molecule: CCCN1C(=O)CN(C)C(=O)[C@@H]2CCN2C(=O)[C@H]([C@@H](C)CC)NC(=O)[C@H](CC(C)C)N(C)C(=O)C[C@@H](C(=O)N2CCOCC2)N(C)C(=O)[C@H](C2CCCC2)N(C)C(=O)C2(CCC2)NC(=O)[C@@H]2CCCN2C(=O)[C@H](CCc2ccc(C(F)(F)F)c(Cl)c2)NC(=O)CN(C)C(=O)[C@@H]1Cc1ccc(C(F)(F)F)cc1 [PP0402] ([NMeL]I[Aze][Sar][NPrPhe(4-CF3)][Sar][hPhe(3-Cl-4-CF3)]P[Ac4c][NMeGly(cPent)][NMeD]-Morpholide; lactam N-11) ; wanted: its pKd
result: 8.92

* * *

Below, each entry is listed alongside its reported pKd.
- experimental_target: GDP-bound KRAS wild-type protein (Homo sapiens)
- assay_text: Binding to KRAS by surface plasmon resonance (SPR), dissociation constant KD
- condition: Single Cycle Kinetics, 1:1 binding model
# pKd: negative log10 of molar concentration; output just the value

Guide cases for pKd, answers given:
chem_smiles	experimental_target	measured_metric	meas_value
CCO[C@@H]1C[C@H]2C(=O)NC3(CC(C)(C)C3)C(=O)N(C)[C@@H](C3CCCC3)C(=O)N(C)[C@H](C(=O)N(C)C)CC(=O)N(C)[C@@H](CC(C)C)C(=O)N[C@@H]([C@@H](C)CC)C(=O)N(C3CC3)CC(=O)N(C)[C@H]3C/C=C\CCN(C3=O)[C@@H](Cc3ccc(C)cc3)C(=O)N(C)CC(=O)N[C@@H](CCc3cc(F)c(C(F)(F)F)c(F)c3)C(=O)N2C1	GDP-bound KRAS wild-type protein (Homo sapiens)	pKd	9.54
CCC[C@H]1C(=O)N[C@@H]([C@@H](C)CC)C(=O)N(C)CC(=O)N(C)[C@H]2C/C=C\CCN(C2=O)[C@@H](Cc2ccc(C(F)(F)F)cc2)C(=O)N(C)CC(=O)N[C@@H](CCc2cc(F)c(Cl)c(F)c2)C(=O)N2C[C@H](OCC)C[C@H]2C(=O)NC2(CCC2)C(=O)N(C)[C@@H](C(CC)CC)C(=O)N(C)[C@H](C(=O)N(C)C)CC(=O)N1C	GDP-bound KRAS wild-type protein (Homo sapiens)	pKd	9.25
CCCN(C)C(=O)[C@@H]1CC(=O)N(C)[C@@H](CC)C(=O)N[C@@H]([C@@H](C)CC)C(=O)N(C)CC(=O)N(C)[C@H]2C/C=C\CCN(C2=O)[C@@H](Cc2ccc(C(F)(F)F)cc2)C(=O)N(C)CC(=O)N[C@@H](CCc2ccc(C(F)(F)F)c(OC)c2)C(=O)N2C[C@H](OCC)C[C@H]2C(=O)NC2(CC(C)(C)C2)C(=O)N(C)[C@@H](C2CCCC2)C(=O)N1C	GDP-bound KRAS wild-type protein (Homo sapiens)	pKd	10.01
CC[C@H](C)[C@@H]1NC(=O)[C@H](CC2CC2)N(C)C(=O)C[C@@H](C(=O)N(C)C)N(C)C(=O)[C@H](C2CCCC2)N(C)C(=O)C2(CCC2)NC(=O)[C@@H]2C[C@H](C)CN2C(=O)[C@H](CCc2ccc(C(F)(F)F)c(OC)c2)NC(=O)CN(C)C(=O)[C@H](Cc2ccc(C)cc2)N2CC/C=C\C[C@@H](C2=O)N(C)C(=O)CN(C)C1=O	GDP-bound KRAS wild-type protein (Homo sapiens)	pKd	10.04

// below: pKd requested for another compound
query: Can you share its pKd? I mean this compound: "CCOC[C@H]1C(=O)N[C@@H]([C@@H](C)CC)C(=O)N(C)CC(=O)N(C)[C@H]2C/C=C\CCN(C2=O)[C@@H](Cc2ccc(C(F)(F)F)cc2)C(=O)N(C)CC(=O)N[C@@H](CCc2cc(F)c(C(F)(F)F)c(F)c2)C(=O)N2C[C@H](OCC)C[C@H]2C(=O)NC2(CCC2)C(=O)N(C)[C@@H](C2CCCC2)C(=O)N(C)[C@H](C(=O)N(C)C)CC(=O)N1C"
result: 10.35
